Kindly supply the reported Percent Effect values for the records listed here.
- Test system: Leishmania donovani
- Test summary: Leishmania intramacrophage assay
- Format: functional, organism-based
- Parameters: scale not given: in the data most compounds retested in dose-response had high values
- Run parameters: 30.3 µM; […]
Hit rate of the full screen: of about 69,000 compounds, about 1,000 (1.4%) showed an effect of 50% or more. The sample as a whole holds a higher share of strong results than the screen did.
Could you write the number and then its unit?

INPUT: Entry Cl.NC1CCc2nc(-c3cccnc3)nc(Nc3ccc(F)cc3)c2C1 (stereo unspecified) : reported Percent Effect = ?
OUTPUT: 94.83%

INPUT: Entry CC(C1CCN(Cc2ccccc2OC(F)F)CC1)N1CCOCC1 (stereo unspecified) : reported Percent Effect = ?
OUTPUT: 38.92%

INPUT: Entry CC(=O)N[C@@H]1CN(C2CCN(c3ccccc3F)CC2)C[C@H]1C(C)C : reported Percent Effect = ?
OUTPUT: -2.556%

INPUT: Entry CC(C1CCN(Cc2ccc(OC(F)F)cc2)CC1)N1CCOCC1 (stereo unspecified) : reported Percent Effect = ?
OUTPUT: 57.26%

INPUT: Entry C[C@@H]1CN(C2CCN(c3ccccc3F)CC2)C[C@]1(C)O : reported Percent Effect = ?
OUTPUT: 31.62%

INPUT: Entry Cc1sc2nc(CCN)nc(N(C)CCCC3CCCO3)c2c1C (stereo unspecified) : reported Percent Effect = ?
OUTPUT: 63.54%

INPUT: Entry COCCN(CC1CC1)c1nc(CCN)nc2sc(C)c(C)c12 : reported Percent Effect = ?
OUTPUT: 77.93%

INPUT: Entry CN(CC1CCCO1)c1nc(-c2cccnc2)nc2c1CCNCC2 (stereo unspecified) : reported Percent Effect = ?
OUTPUT: 34.58%

INPUT: Entry CC(=O)N1CCc2c(nc(N(C)C)nc2N(C)CCCC2CCCO2)C1 (stereo unspecified) : reported Percent Effect = ?
OUTPUT: -1.539%

INPUT: Entry CC(C)Oc1cccc(CN2CCC(C(C)N3CCOCC3)CC2)c1 (stereo unspecified) : reported Percent Effect = ?
OUTPUT: 60.52%

INPUT: Entry CC(C1CCN(Cc2ccc(N(C)C)nc2)CC1)N1CCOCC1 (stereo unspecified) : reported Percent Effect = ?
OUTPUT: 35.27%
